Each entry below lists one item and its recorded Quotient (kNSF/kDSV) value.
assay: Comparative dissolution profiles of five solid phases; type: physicochemical; details: pH 1.2
Lab note: record the figure alone, no unit after it.

Example results:
{"columns": ["compound", "Quotient (kNSF/kDSV)"],
 "data": [
  ["CN(C)CC(c1ccc(O)cc1)C1(O)CCCCC1.O=C(O)c1ccc(O)c(O)c1 (stereo not shown) [Crystalline DSV:3,4-DHB]", 1.8],
  ["CN(C)CC(c1ccc(O)cc1)C1(O)CCCCC1 (stereo not shown) [DSV-Succinate, desvenlafaxine succinate, reference compound]", 2.1]
]}

Lab note: measured Quotient (kNSF/kDSV) of CN(C)CC(c1ccc(O)cc1)C1(O)CCCCC1.O=C(O)c1ccc(O)c(O)c1 (stereo not shown) [Amorphous DSV:3,4-DHB, desvenlafaxine-3,4-dihydroxybenzoic acid] was 5.0

Lab note: measured Quotient (kNSF/kDSV) of CN(C)CC(c1ccc(O)cc1)C1(O)CCCCC1.O=C(O)c1ccc(O)cc1O (stereo not shown) [Crystalline DSV:2,4-DHB, desvenlafaxine-2,4-dihydroxybenzoic acid] was 0.79

---

experiment: Dissolution rate test in Wood apparatus, amorphous NSF; assay type: physicochemical; conditions: pH 6.8; 150 mg tablets, 37° C., 50 rpm
parameter_measured: Dissolution Rate Constants (mg/cm^2 · min)
Number only, in mg/cm^2 · min; omit the unit.

Example results:
{"columns": ["compound", "measure_unit", "Dissolution Rate Constants"],
 "data": [
  ["CN(C)CC(c1ccc(O)cc1)C1(O)CCCCC1.O=C(O)c1cc(O)c(O)c(O)c1 (stereo not shown)", "mg/cm^2 · min", 9.0],
  ["CN(C)CC(c1ccc(O)cc1)C1(O)CCCCC1.O=C(O)c1ccc(O)c(O)c1 (stereo not shown) [Amorphous DSV:3,4-DHB, desvenlafaxine-3,4-dihydroxybenzoic acid]", "mg/cm^2 · min", 5.7],
  ["CN(C)CC(c1ccc(O)cc1)C1(O)CCCCC1.O=C(O)c1cccc(O)c1 (stereo not shown) [DSV:3-HB, desvenlafaxine-3-hydroxybenzoic acid]", "mg/cm^2 · min", 5.4]
]}

Okay, now this compound:
Lab note: measured Dissolution Rate Constants of CN(C)CC(c1ccc(O)cc1)C1(O)CCCCC1 (racemic) [DSV, reference compound] was 0.5
